system: Jurkat; assay: Cell proliferation assay, Alamar Blue, Jurkat; assay type: cell-based; conditions: Homo sapiens, Table 18;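 further: cells exposed to compound for about 4 days at 37 °C, then Alamar Blue added and fluorescence read after about 4 h, controls given medium without drug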
endpoint: log10 IC50 (log10 of the value in µM)
Note the log scale: values are log10 of IC50 expressed in µM.

Task: Item under review: C#Cc1cccc(Nc2nc3cc(C(=O)O)ccc3c3cnc(NCC4CCCO4)nc23)c1 (centres unmarked) [drawing 1063] . Reported log10 IC50?
Result: 0.31

Task: Data request, read-out log10 IC50, for "CNc1ncc2c(n1)c(Nc1cccc(Cl)c1)nc1cc(C(=O)O)ccc12"
Result: 0.04

Task: Look up log10 IC50 for this molecule: O=C(O)c1ccc2c(c1)nc(NC1CC1)c1nc(Nc3ccccc3)ncc12 [drawing 1076]
Result: 0.66

Task: // log10 IC50 lookup, key: CC1CCCCN1CCCNc1ncc2c(n1)c(Nc1ccc(F)c(Cl)c1)nc1cc(C(=O)O)ccc12 (centres unmarked) [drawing 1087]
Result: 0.46

Task: # get_value(readout='log10 IC50', item= COC(=O)c1ccc2c(c1)nc(NC1CC1)c1nc(SCc3ccccc3Cl)ncc12 [drawing 1069] )
Result: 0.67

Task: Name the recorded log10 IC50 for O=C(O)c1ccc2c(c1)nc(NC1CC1)c1nc(SCc3ccccc3Cl)ncc12 [drawing 1072] .
Result: 1.47

Task: Recorded log10 IC50 of O=C(O)c1ccc2c(c1)nc(N1CCOCC1)c1nc(NC3CC3)ncc12 [drawing 1085] , please.
Result: 0.56

----------
assay: Pharmacokinetics in ICR mice after IV and PO dose; assay type: in vivo; conditions: mouse, plasma, PO, 24.5 mg/kg
endpoint: AUC(0-t) (ng·h/mL)
# value in ng·h/mL; strip the unit string

Task: AUC(0-t) lookup needed for C#Cc1cccc(Nc2nc3cc(C(=O)O)ccc3c3cncnc23)c1 [drawing 1347] , thanks.
Result: 9120

----------
test: Pharmacokinetics in ICR mice after IV and PO dose; assay type: in vivo; settings: mouse, plasma, PO, 24.5 mg/kg
endpoint: Tmax (min)
Hi! Could you send only the number? It should be in min, unit omitted.

Task: Return reported Tmax; argument: C#Cc1cccc(Nc2nc3cc(C(=O)O)ccc3c3cncnc23)c1 [drawing 1347]
Result: 30

----------
target: PARP (Homo sapiens (Human), UniProt P09874); experiment: PARP assay (chemiluminescent PARP assay kit, Trevigen); format: biochemical; conditions: 1 uM; Table 12; read-out: PARP % inhib @ 1 uM
Sequence (P09874 whole entry): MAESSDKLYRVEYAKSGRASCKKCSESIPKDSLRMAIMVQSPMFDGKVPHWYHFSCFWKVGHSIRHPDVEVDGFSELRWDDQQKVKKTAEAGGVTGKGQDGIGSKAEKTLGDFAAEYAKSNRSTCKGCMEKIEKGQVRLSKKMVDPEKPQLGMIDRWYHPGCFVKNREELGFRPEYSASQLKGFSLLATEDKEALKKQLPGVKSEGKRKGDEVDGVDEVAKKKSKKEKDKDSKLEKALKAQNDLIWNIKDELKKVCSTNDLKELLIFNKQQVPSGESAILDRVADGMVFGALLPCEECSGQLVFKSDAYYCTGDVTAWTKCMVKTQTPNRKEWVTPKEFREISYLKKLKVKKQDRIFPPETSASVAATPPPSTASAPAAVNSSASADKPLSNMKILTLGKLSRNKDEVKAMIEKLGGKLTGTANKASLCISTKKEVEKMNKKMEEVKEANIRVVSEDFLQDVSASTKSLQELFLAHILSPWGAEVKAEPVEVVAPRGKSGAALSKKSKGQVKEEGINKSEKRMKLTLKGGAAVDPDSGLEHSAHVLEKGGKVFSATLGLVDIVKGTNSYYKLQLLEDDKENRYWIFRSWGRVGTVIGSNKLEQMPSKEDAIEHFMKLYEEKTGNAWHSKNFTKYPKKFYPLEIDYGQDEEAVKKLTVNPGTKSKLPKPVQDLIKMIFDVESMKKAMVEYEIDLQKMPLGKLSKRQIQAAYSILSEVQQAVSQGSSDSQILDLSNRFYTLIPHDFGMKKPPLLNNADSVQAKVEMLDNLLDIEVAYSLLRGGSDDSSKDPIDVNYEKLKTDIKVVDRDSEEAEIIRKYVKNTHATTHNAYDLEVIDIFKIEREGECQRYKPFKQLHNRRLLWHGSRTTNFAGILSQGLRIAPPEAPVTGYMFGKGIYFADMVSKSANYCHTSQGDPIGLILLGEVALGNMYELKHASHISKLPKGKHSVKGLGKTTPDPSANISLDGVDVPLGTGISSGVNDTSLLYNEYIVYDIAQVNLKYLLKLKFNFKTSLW
Could you please report measured inhibition at 1 µM for the items listed next?

Task: Recorded inhibition at 1 µM of "O=C(O)c1ccc2c3sccc3c(=O)n(CCCO)c2c1" , please.
Result: 21%

Task: Could you tell me which inhibition at 1 µM is on file for "O=C(NCc1ccccn1)c1ccc2c(c1)[nH]c(=O)c1ccsc12" ?
Result: 71%

Task: // lookup inhibition at 1 µM for "CC(C)(C)OC(=O)CCNC(=O)c1ccc2c(c1)[nH]c(=O)c1ccsc12"
Result: 40%

Task: I'd like to know its inhibition at 1 µM. The molecule in question is "O=c1[nH]c2cc(-c3nn[nH]n3)ccc2c2sccc12"
Result: 39%

Task: What does the record list as inhibition at 1 µM for "N#Cc1ccc2c(c1)[nH]c(=O)c1ccsc12" ?
Result: 51%

Task: # input molecule: "O=C(Nc1ccc(CN2CCS(=O)(=O)CC2)cc1)c1ccc2c(c1)[nH]c(=O)c1ccsc12" ; wanted: its inhibition at 1 µM
Result: 29%

Task: For the molecule shown here, "O=C(NCCc1cnc[nH]1)c1ccc2c(c1)[nH]c(=O)c1ccsc12" , give the reported inhibition at 1 µM.
Result: 83%

Task: Which inhibition at 1 µM is listed for "COC(=O)c1ccc2c3sccc3c(=O)n(CCCO)c2c1" ?
Result: 40%

Task: Any idea what its inhibition at 1 µM is? The molecule is "COC(=O)c1ccc2c(c1)[nH]c(=O)c1ccsc12"
Result: 27%

Task: Give its inhibition at 1 µM value. Item: "COc1ccc(CNC(=O)c2ccc3c(c2)[nH]c(=O)c2ccsc23)cc1"
Result: 45%

Task: Would you mind telling me what inhibition at 1 µM value was observed for "O=C(NCCc1ccccc1)c1ccc2c(c1)[nH]c(=O)c1ccsc12" ?
Result: 64%

Task: Param item = "O=C(NCc1ccccc1)c1ccc2c(c1)[nH]c(=O)c1ccsc12" ; retrieve measured inhibition at 1 µM.
Result: 36%

Task: Which value of inhibition at 1 µM has been reported for "CCCNC(=O)c1ccc2c(c1)[nH]c(=O)c1ccsc12" in the records?
Result: 65%

Task: inhibition at 1 µM lookup needed for "O=C(NC1CC1)c1ccc2c(c1)[nH]c(=O)c1ccsc12" , thanks.
Result: 69%

Task: Bench note: what inhibition at 1 µM did "O=C(NCc1ccncc1)c1ccc2c(c1)[nH]c(=O)c1ccsc12" show?
Result: 75%

Task: Can you look up the measured inhibition at 1 µM of "O=C(O)CCNC(=O)c1ccc2c(c1)[nH]c(=O)c1ccsc12" for me?
Result: 35%

Task: Given "COCCNC(=O)c1ccc2c(c1)[nH]c(=O)c1ccsc12" , state its recorded inhibition at 1 µM.
Result: 65%

Task: May I ask what inhibition at 1 µM has been recorded for "COc1ccc(CCNC(=O)c2ccc3c(c2)[nH]c(=O)c2ccsc23)cc1OC" ?
Result: 15%

Task: Looking for the measured inhibition at 1 µM of "O=C(NCCc1ccccn1)c1ccc2c(c1)[nH]c(=O)c1ccsc12" , can you help?
Result: 55%

Task: Record request: inhibition at 1 µM value, item "O=C(O)c1ccc2c(c1)[nH]c(=O)c1cc(Br)sc12"
Result: 39%

Task: Looking for the measured inhibition at 1 µM of "CN(C)CCn1c(=O)c2ccsc2c2ccc(C(=O)O)cc21" , can you help?
Result: 5%

Task: Give the measured inhibition at 1 µM of "COc1ccccc1CNC(=O)c1ccc2c(c1)[nH]c(=O)c1ccsc12" .
Result: 27%

Task: Given the molecule "O=C(Nc1ccc(N2CCOCC2)cc1)c1ccc2c(c1)[nH]c(=O)c1ccsc12" , what is its reported inhibition at 1 µM?
Result: 0%

Task: Dear colleague, I am looking for the recorded inhibition at 1 µM of the following molecule: "O=C(NCc1cccnc1)c1ccc2c(c1)[nH]c(=O)c1ccsc12"
Result: 71%

Task: Tell me the measured inhibition at 1 µM of "CN(C)C(=O)c1ccc2c(c1)[nH]c(=O)c1ccsc12" , please.
Result: 89%

Task: Entry "NC(=O)c1ccc2c(c1)[nH]c(=O)c1ccsc12" : reported inhibition at 1 µM = ?
Result: 79%

Task: Return reported inhibition at 1 µM; argument: "O=C(Nc1ccccc1)c1ccc2c(c1)[nH]c(=O)c1ccsc12"
Result: 0%

Task: Give its inhibition at 1 µM value. Item: "O=c1[nH]c2cc(CO)ccc2c2sccc12"
Result: 74%

Task: Entry under review: "Cc1cc(CNC(=O)c2ccc3c(c2)[nH]c(=O)c2ccsc23)no1" . Reported inhibition at 1 µM?
Result: 67%

Task: Query: inhibition at 1 µM; subject: COC(=O)c1ccc2c(c1)nc(Cl)c1ccsc12 [drawing 552]
Result: 18%

Task: Look up inhibition at 1 µM for this molecule: "O=C(Nc1ccccc1C(=O)O)c1ccc2c(c1)[nH]c(=O)c1ccsc12"
Result: 12%

Task: Fill in: inhibition at 1 µM of "COc1ccc(NC(=O)c2ccc3c(c2)[nH]c(=O)c2ccsc23)c(OC)c1" is ___
Result: 0%

Task: // inhibition at 1 µM lookup, key: "O=C(Nc1ccc(Cl)cc1)c1ccc2c(c1)[nH]c(=O)c1ccsc12"
Result: 0%

Task: Look at this molecule and give its reported inhibition at 1 µM. "COC(=O)CNC(=O)c1ccc2c(c1)[nH]c(=O)c1ccsc12"
Result: 47%

Task: Given the entry "COc1ccccc1NC(=O)c1ccc2c(c1)[nH]c(=O)c1ccsc12" , report its measured inhibition at 1 µM.
Result: 0%

Task: // inhibition at 1 µM lookup, key: "CC(C)(C)OC(=O)N1CCN(C(=O)c2ccc3c(c2)[nH]c(=O)c2ccsc23)CC1"
Result: 72%

Task: Recorded inhibition at 1 µM of "O=C(c1ccc2c(c1)[nH]c(=O)c1ccsc12)N1CCNCC1" , please.
Result: 96%

Task: Suppose we examine the molecule "NC1CCN(C(=O)c2ccc3c(c2)[nH]c(=O)c2ccsc23)CC1" ; what inhibition at 1 µM value has been reported?
Result: 96%

Task: So what's the measured inhibition at 1 µM for this one? "O=C(O)CNC(=O)c1ccc2c(c1)[nH]c(=O)c1ccsc12"
Result: 31%

Task: Quick one: inhibition at 1 µM for "O=C(O)c1ccc2c(c1)[nH]c(=O)c1ccsc12" ?
Result: 58%

Task: Request the reported inhibition at 1 µM associated with "O=C(Nc1cccnc1)c1ccc2c(c1)[nH]c(=O)c1ccsc12"
Result: 0%

Task: Record request: inhibition at 1 µM value, item "O=C(NCCN1CCOCC1)c1ccc2c(c1)[nH]c(=O)c1ccsc12"
Result: 77%

Task: Could you share which inhibition at 1 µM value was measured for "CC(C)(C)OC(=O)NC1CCN(C(=O)c2ccc3c(c2)[nH]c(=O)c2ccsc23)CC1" ?
Result: 49%

Task: I would be grateful if you could share the reported inhibition at 1 µM for "CC(=O)N1CCN(C(=O)c2ccc3c(c2)[nH]c(=O)c2ccsc23)CC1" .
Result: 71%

Task: Request the reported inhibition at 1 µM associated with "COC(=O)c1ccccc1NC(=O)c1ccc2c(c1)[nH]c(=O)c1ccsc12"
Result: 24%

Task: Can you look up the measured inhibition at 1 µM of "O=C(c1ccc2c(c1)[nH]c(=O)c1ccsc12)N1CCOCC1" for me?
Result: 82%

Task: I am curious: what inhibition at 1 µM value has been reported for "O=C(Nc1nccs1)c1ccc2c(c1)[nH]c(=O)c1ccsc12" ?
Result: 0%

Data origin: patent US9062043B2
